The measured values listed here are drawn from patent US20030134901A1.

- TARGET_SYSTEM: HUVEC (putative LTD4 receptors)
- RUN_DESCRIPTION: 3H-LXA4 specific binding to HUVEC
QUANTITY_NAME: pKd
Numbers only, as −log10 of the molar value.

Report pKd for [3H]C(/C=C/C=C/[C@@H](O)[C@@H](O)CCCC(=O)O)=C([3H])/C=C/[C@@H](O)CCCCC [[11,12-^3H]LXA4] please.
7.96

* * *

- TARGET_SYSTEM: 15-PGDH (Homo sapiens)
- Construct: 100,000 g supernatants prepared from PMA-treated HL-60 cells converted 15-HETE to 15-oxo-ETE; endogenous in cells; freeze-thaw lysate, 100,000 g supernatant
- Sequence (P15428 whole entry): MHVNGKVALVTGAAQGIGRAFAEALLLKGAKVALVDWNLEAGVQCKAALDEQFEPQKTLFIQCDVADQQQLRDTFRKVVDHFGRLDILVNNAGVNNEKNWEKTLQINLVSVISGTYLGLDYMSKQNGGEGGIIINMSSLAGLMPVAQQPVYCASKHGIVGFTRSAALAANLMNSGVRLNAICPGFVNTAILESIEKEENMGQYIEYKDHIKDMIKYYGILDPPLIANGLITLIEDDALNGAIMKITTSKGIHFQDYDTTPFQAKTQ
- RUN_DESCRIPTION: 15-HETE to 15-oxo-ETE dehydrogenase activity of 100,000 g supernatants of PMA-treated HL-60 cells
- TEST_PARAMETERS: Lineweaver-Burke plots, S.E.M., n=6; read-out: Ki, competition for catalysis of 15-HETE
QUANTITY_NAME: Ki (µM)
Give bare numbers, in µM.

Sample CCCCC[C@H](O)/C=C/C=C\C=C\C=C\[C@@H](O)[C@@H](O)CCCC(=O)O — what was its Ki?
8.2

* * *

- Tested on: A549 cells
- RUN_DESCRIPTION: A549 cell proliferation, MTT assay
- Assay type: cell-based, human
- TEST_PARAMETERS: Homo sapiens, A549; MTT assay, 72 hours; read-out: half maximum inhibition (IC50) of A549 cell proliferation
QUANTITY_NAME: IC50

C[C@@H]1C[C@H]2[C@@H]3CCC4=CC(=O)C=C[C@]4(C)[C@@]3(F)[C@@H](O)C[C@]2(C)[C@@]1(O)C(=O)CO ... ~7 nM

Could you now consider this next compound?
# returns recorded IC50 (system: A549 cells) for CCCCC[C@H](O)/C=C/C=C\C=C\C=C\[C@@H](O)[C@@H](O)CCCC(=O)O
~80 nM

* * *

- TARGET_SYSTEM: LXA4 specific binding sites of differentiated HL-60 cells (Homo sapiens)
- Construct: endogenous in cells; intact cells
- Sequence (P25090 1-351): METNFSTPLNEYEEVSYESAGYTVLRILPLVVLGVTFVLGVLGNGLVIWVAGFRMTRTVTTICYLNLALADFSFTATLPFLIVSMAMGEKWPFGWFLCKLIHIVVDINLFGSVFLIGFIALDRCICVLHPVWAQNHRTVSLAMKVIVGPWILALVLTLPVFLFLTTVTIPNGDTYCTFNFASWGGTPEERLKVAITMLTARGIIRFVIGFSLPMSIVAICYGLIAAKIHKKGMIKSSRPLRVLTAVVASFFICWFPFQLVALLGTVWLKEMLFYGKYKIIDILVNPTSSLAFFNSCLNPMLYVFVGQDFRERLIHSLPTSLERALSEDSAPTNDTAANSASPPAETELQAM
- RUN_DESCRIPTION: 3H-LXA4 specific binding to differentiated HL-60 cells
- TEST_PARAMETERS: isotherm binding, 4° C., 10 min, 0.1-30 nM
QUANTITY_NAME: Kd (nM)
Give bare numbers, in nM.

# Kd lookup, item [3H]C(/C=C/C=C/[C@@H](O)[C@@H](O)CCCC(=O)O)=C([3H])/C=C/[C@@H](O)CCCCC [[11,12-^3H]LXA4]
0.6

* * *

- TARGET_SYSTEM: LXA4 specific binding sites of differentiated HL-60 cells (Homo sapiens, UniProt P25090)
- Construct: endogenous in cells; host or cells: HL-60 cells differentiated with DMSO, retinoic acid or PMA; intact cells
- RUN_DESCRIPTION: 3H-LXA4 specific binding to differentiated HL-60 cells
- TEST_PARAMETERS: competition, competitor 300 nM where printed
QUANTITY_NAME: displacement of 3H-LXA4 specific binding

COc1ccc(/C=C/CCCCOc2cccc(OCCCCC(=O)O)c2CCC(=O)O)cc1 [ONO-4057] ... did not displace
O=C(O)CCS[C@H](c1ccccc1CCCCCCCCc1ccccc1)[C@@H](O)C(=O)O [SKF 104353] ... did not displace

* * *

- System: neutrophil adhesion to endothelial cells
- RUN_DESCRIPTION: Neutrophil adhesion assay
- Type: cell-based
- TEST_PARAMETERS: read-out: IC50, PMN adhesion triggered by LTB4 to human endothelial cells; triggered by leukotriene B4
QUANTITY_NAME: IC50

Which IC50 reading was recorded for the molecule CCCCCC(C)(O)C=CC=CC=CC=CC(O)C(O)CCCC(=O)O (stereo not shown) ?
~1 nM
